Reference source: patent US5585105A

- Test system: fungal tyrosinase
- TEST: in vitro tyrosinase activity inhibition test
- Type: biochemical
- ASSAY_SETUP: decrease in maximum dopachrome formed (OD 475 nm, plateau) vs without inhibitor; inhibitor 50 mol. % relative to tyrosine; pH 6.5, 25° C.
MEASURED_ENDPOINT: % change in maximum dopachrome vs no inhibitor (%)

The cases that follow already have their % change in maximum dopachrome vs no inhibitor on record.
INSERT INTO assay_data (molecule, target_or_test_system, value_unit, measurement) VALUES
  ('Oc1ccc(O)cc1 [hydroquinone, reference compound]', 'fungal tyrosinase', '%', -33),
  ('Cc1cc(O)c(CC(=O)O)cc1O', 'fungal tyrosinase', '%', -66),
  ('Cc1cc(O)c(CCC(=O)O)cc1O', 'fungal tyrosinase', '%', -64),
  ('O=C(O)CCc1cc(O)ccc1O', 'fungal tyrosinase', '%', -42);

[I] Cc1c(O)cc(CC(=O)O)c(O)c1C
[II] COC(=O)Cc1cc(O)c(C)cc1O
# returns the entry with the larger % change in maximum dopachrome vs no inhibitor; inputs I and II Please respond with the label that marks your chosen entry. I
